Recorded EC50, one value per entry.
- System: FGF receptor/BKL complex
- Sequence (Q86Z14 whole entry, one chain of several): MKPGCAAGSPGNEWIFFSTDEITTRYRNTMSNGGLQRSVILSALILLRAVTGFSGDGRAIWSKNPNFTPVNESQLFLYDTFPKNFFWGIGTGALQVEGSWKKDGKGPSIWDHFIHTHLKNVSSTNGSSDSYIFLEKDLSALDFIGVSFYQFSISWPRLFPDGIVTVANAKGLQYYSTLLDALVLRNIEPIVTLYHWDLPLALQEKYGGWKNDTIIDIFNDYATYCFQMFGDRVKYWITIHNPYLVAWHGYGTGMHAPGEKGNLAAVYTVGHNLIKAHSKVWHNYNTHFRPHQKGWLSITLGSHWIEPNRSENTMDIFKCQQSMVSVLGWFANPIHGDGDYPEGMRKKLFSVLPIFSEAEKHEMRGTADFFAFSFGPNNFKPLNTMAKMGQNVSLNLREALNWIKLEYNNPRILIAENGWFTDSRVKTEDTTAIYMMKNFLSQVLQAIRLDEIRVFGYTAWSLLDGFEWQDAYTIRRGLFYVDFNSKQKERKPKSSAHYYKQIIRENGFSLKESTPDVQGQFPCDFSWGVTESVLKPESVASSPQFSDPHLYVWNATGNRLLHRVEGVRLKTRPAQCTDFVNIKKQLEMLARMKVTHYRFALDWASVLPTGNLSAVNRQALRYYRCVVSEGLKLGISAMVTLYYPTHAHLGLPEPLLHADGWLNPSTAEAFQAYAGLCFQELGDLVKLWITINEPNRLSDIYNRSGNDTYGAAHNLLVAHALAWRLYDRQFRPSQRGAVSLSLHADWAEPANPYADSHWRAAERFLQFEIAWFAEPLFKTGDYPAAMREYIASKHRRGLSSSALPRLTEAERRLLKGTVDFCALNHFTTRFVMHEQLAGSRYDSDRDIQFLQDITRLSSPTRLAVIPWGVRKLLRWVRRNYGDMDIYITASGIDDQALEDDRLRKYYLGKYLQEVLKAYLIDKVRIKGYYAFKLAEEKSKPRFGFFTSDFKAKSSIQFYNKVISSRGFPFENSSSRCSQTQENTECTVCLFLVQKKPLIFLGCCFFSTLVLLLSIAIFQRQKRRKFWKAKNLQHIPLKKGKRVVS
- Test Summary: FGF receptor potency in an Erk phosphorylation assay in HEK293 overexpressing human BKL
- Type: cell-based
- Condition Details: HEK293/BKL cells, pERK after 12 minutes, absence of HSA; read-out: EC50
Express it in nM; write the number only.

| Molecule | Observed Measurement |
| --- | --- |
| Ala[Gln121, Leu168, Cys172]FGF21 (protein, N-terminal Ala, FGF21 analogue) AHPIPDSSPLLQFGGQVRQRYLYTDDAQQTEAHLEIREDGTVGGAADQSPESLLQLKALKPGVIQILGVKTSRFLCQRPDGALYGSLHFDPEACSFRELLLEDGYNVYQSEAHGLPLHLPGQKSPHRDPAPRGPARFLPLPGLPPALPEPPGILAPQPPDVGSSDPLSLVGPSCGRSPSYAS | 5 |
| Ala[Gln121, Leu168, Cys177]FGF21 (protein, N-terminal Ala) AHPIPDSSPLLQFGGQVRQRYLYTDDAQQTEAHLEIREDGTVGGAADQSPESLLQLKALKPGVIQILGVKTSRFLCQRPDGALYGSLHFDPEACSFRELLLEDGYNVYQSEAHGLPLHLPGQKSPHRDPAPRGPARFLPLPGLPPALPEPPGILAPQPPDVGSSDPLSLVGPSQGRSCSYAS | 416 |
| S{Beta-179}-2-aminoethylsulfanyl-Ala[Gln121, Leu168, Cys179]FGF21 (protein, N-terminal Ala; cysteamine disulfide on Cys179) AHPIPDSSPLLQFGGQVRQRYLYTDDAQQTEAHLEIREDGTVGGAADQSPESLLQLKALKPGVIQILGVKTSRFLCQRPDGALYGSLHFDPEACSFRELLLEDGYNVYQSEAHGLPLHLPGQKSPHRDPAPRGPARFLPLPGLPPALPEPPGILAPQPPDVGSSDPLSLVGPSQGRSPSCAS | 69 |

Query string: Looking for the measured EC50 of S{Beta-176}-[2-[2-[[2-[2-[2-[[2-[2-[2-[[(4S)-4-carboxy-4-(15-carboxypentadecanoyl-amino)butanoyl]amino]ethoxy]ethoxy]acetyl]amino]ethoxy]ethoxy]acetyl]amino]-ethylamino]-2-oxoethyl]-Ala[Gln121,Leu168, … (protein) HPIPDSSPLLQFGGQVRQRYLYTDDAQQTEAHLEIREDGTVGGAADQSPESLLQLKALKPGVIQILGVKTSRFLCQRPDGALYGSLHFDPEACSFRELLLEDGYNVYQSEAHGLPLHLPGQKSPHRDPAPRGPARFLPLPGLPPALPEPPGILAPQPPDVGSSDPLSLVGPSQGRCPSYAS , can you help?
Result string: 214

Query string: Looking for the measured EC50 of S{Beta-180}-[2-[2-[[2-[2-[2-[[2-[2-[2-[[(4S)-4-carboxy-4-(17-carboxyheptadecanoyl-amino)butanoyl]amino]ethoxy]ethoxy]acetyl]amino]ethoxy]ethoxy]acetyl]amino]-ethylamino]-2-oxoethyl]-Ala[Gln121,Leu168, … (protein) HPIPDSSPLLQFGGQVRQRYLYTDDAQQTEAHLEIREDGTVGGAADQSPESLLQLKALKPGVIQILGVKTSRFLCQRPDGALYGSLHFDPEACSFRELLLEDGYNVYQSEAHGLPLHLPGQKSPHRDPAPRGPARFLPLPGLPPALPEPPGILAPQPPDVGSSDPLSLVGPSQGRSPSYC , can you help?
Result string: 8

Query string: Looking for the measured EC50 of S{Beta-181}-[2-[2-[[2-[2-[2-[[2-[2-[2-[[(4S)-4-carboxy-4-(17-carboxyheptadecanoyl-amino)butanoyl]amino]ethoxy]ethoxy]acetyl]amino]ethoxy]ethoxy]acetyl]amino]-ethylamino]-2-oxoethyl]-Ala[Gln121,Leu168, … (protein) HPIPDSSPLLQFGGQVRQRYLYTDDAQQTEAHLEIREDGTVGGAADQSPESLLQLKALKPGVIQILGVKTSRFLCQRPDGALYGSLHFDPEACSFRELLLEDGYNVYQSEAHGLPLHLPGQKSPHRDPAPRGPARFLPLPGLPPALPEPPGILAPQPPDVGSSDPLSLVGPSQGRSPSYAC , can you help?
Result string: 42

Query string: Looking for the measured EC50 of S{Beta-180}-[2-[2-[[2-[2-[2-[[2-[2-[2-[[(4S)-4-carboxy-4-(19-carboxynonadecanoyl-amino)butanoyl]amino]ethoxy]ethoxy]acetyl]amino]ethoxy]ethoxy]acetyl]amino]-ethylamino]-2-oxoethyl]-Ala[Gln121,Leu168,C … (protein) HPIPDSSPLLQFGGQVRQRYLYTDDAQQTEAHLEIREDGTVGGAADQSPESLLQLKALKPGVIQILGVKTSRFLCQRPDGALYGSLHFDPEACSFRELLLEDGYNVYQSEAHGLPLHLPGQKSPHRDPAPRGPARFLPLPGLPPALPEPPGILAPQPPDVGSSDPLSLVGPSQGRSPSYCS , can you help?
Result string: 5

Query string: Looking for the measured EC50 of S{Beta-180}-[2-[2-[[2-[2-[2-[[2-[2-[2-[[(4S)-4-carboxy-4-(17-carboxyheptadecanoyl-amino)butanoyl]amino]ethoxy]ethoxy]acetyl]amino]ethoxy]ethoxy]acetyl]amino]-ethylamino]-2-oxoethyl]-Ala[Gln121,Leu168, … (protein) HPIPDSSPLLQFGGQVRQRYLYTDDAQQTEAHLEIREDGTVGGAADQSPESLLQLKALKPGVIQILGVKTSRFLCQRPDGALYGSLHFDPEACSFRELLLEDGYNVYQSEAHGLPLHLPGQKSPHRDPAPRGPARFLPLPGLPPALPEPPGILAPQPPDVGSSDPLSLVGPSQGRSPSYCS , can you help?
Result string: 5

Recorded values, source patent US20170182124A1.
